# tested-system: HCMV polymerase (Human cytomegalovirus, UniProt P08546)
# Construct: made in house; host or cells: recombinant baculovirus-infected SF-9 insect cells
# Sequence (P08546 whole entry): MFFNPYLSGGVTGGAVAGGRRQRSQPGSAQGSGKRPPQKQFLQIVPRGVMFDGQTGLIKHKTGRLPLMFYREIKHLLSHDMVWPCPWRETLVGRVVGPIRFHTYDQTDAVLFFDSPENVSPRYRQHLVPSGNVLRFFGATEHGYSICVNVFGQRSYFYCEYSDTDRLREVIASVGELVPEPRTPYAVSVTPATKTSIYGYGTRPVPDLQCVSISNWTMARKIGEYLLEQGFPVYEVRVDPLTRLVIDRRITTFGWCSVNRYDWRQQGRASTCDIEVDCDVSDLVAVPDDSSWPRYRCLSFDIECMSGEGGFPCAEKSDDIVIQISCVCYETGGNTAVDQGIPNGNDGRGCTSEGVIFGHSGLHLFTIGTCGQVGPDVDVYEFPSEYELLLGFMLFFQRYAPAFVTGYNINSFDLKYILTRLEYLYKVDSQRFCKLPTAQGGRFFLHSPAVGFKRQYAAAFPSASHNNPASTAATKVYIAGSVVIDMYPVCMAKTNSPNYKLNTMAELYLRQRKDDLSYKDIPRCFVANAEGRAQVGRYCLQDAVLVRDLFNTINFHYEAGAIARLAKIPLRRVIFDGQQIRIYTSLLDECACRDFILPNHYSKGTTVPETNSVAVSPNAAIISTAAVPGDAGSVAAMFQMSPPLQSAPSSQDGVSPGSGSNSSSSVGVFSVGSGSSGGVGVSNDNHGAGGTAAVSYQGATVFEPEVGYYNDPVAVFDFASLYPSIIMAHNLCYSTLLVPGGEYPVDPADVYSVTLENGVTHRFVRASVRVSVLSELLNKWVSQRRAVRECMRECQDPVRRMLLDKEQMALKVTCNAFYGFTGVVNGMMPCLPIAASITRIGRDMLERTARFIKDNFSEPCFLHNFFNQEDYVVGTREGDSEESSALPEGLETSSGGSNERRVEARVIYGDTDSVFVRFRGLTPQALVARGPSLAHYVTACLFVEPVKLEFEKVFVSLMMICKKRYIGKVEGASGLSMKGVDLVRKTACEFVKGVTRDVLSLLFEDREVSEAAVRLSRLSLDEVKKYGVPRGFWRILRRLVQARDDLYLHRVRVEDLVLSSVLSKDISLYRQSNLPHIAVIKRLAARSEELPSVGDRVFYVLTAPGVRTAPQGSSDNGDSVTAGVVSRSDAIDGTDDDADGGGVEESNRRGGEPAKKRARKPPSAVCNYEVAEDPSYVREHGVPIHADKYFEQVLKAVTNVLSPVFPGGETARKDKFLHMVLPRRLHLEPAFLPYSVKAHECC
# measurement-protocol: biochemical
# particulars: HCMV polymerase; SPA; modified assay: compounds in 100% DMSO, 4.5 mM DTT
pIC50: −log10 of the molar value.
# label = yes if pIC50 >= 6 else no

Query: Reported pIC50 at or above 6? Cn1cc(C(=O)NCc2ccc(C#N)cc2)c(=O)c2cc(C#CCO)ccc21 [Example 43]
Result: no

Query: Reported pIC50 at or above 6? Cn1cc(C(=O)NCc2ccc(Cl)cc2)c(=O)c2cc(CN3CC=C(F)CC3)ccc21 [Example 53]
Result: no

Query: Reported pIC50 at or above 6? O=C(NCc1ccc(Cl)cc1)c1cn(N2CCCC2)c2ccc(CN3CCOCC3)cc2c1=O [Example 115]
Result: yes

----------
Measured pIC50 values are reported for all entries that follow.
# tested-system: HCMV polymerase (Human cytomegalovirus)
# Construct: made in house; host or cells: recombinant baculovirus-infected SF-9 insect cells
# measurement-protocol: biochemical
# particulars: HCMV polymerase; SPA; modified assay: compounds in 100% DMSO, 4.5 mM DTT
Bear in mind: pIC50 is minus log10 of a mol/L concentration; give just that figure.

Below, each entry is followed by its recorded pIC50 result.
compound	pIC50
CN1CCN(n2cc(C(=O)NCc3ccc(Cl)cc3)c(=O)c3cc(CN4CCOCC4)ccc32)CC1	6.19
O=C(NCc1ccc(Cl)cc1)c1cn(CCC[S+]([O-])CCCO)c2ccc(CN3CCOCC3)cc2c1=O (stereo not shown)	6.06
Cn1cc(C(=O)NCc2ccc(Cl)cc2)c(=O)c2cc(CN3CC(O)(O)C3)ccc21	6.57

For the next question, use this compound.
Query: Record request: pIC50 value, item `CCCn1cc(C(=O)NCc2ccc(Cl)cc2)c(=O)c2cc(C#CCO)ccc21`
Result: 5.82

----------
# tested-system: HCMV polymerase (Human cytomegalovirus, UniProt P08546)
# Construct: made in house; host or cells: recombinant baculovirus-infected SF-9 insect cells
# measurement-protocol: biochemical
# particulars: HCMV polymerase; SPA; modified assay: compounds in 100% DMSO, 4.5 mM DTT
Threshold-based label: IC50 under 1000 nM gives satisfied, IC50 not under 1000 nM gives not satisfied.

molecule-smiles	cat
Cn1cc(C(=O)NCc2ccc(Cl)cc2)c(=O)c2cccc(C#CCCO)c21	not satisfied
CN(C)n1cc(C(=O)NCc2ccc(Cl)cc2)c(=O)c2ccccc21	not satisfied
O=C(NCc1ccc(Cl)cc1)c1cn(CC#CCO)c2ccc(CN3CCOCC3)cc2c1=O	not satisfied
O=C(NCc1ccc(Cl)cc1)c1cn(CCN(CCO)CCO)c2ccc(CN3CCOCC3)cc2c1=O	satisfied
O=C(NCc1ccc(Cl)cc1)c1cn(C2CCNCC2)c2ccc(CN3CCOCC3)cc2c1=O	satisfied
O=C(NCc1ccc(Cl)cc1)c1cn(CCO)c2ccc(C#CCO)cc2c1=O	satisfied
O=C(NCc1ccc(Cl)cc1)c1cn(COCCO)c2ccc(CN3CCOCC3)cc2c1=O	satisfied

Query: Decide: IC50 of `COCCOCCn1cc(C(=O)NCc2ccc(Cl)cc2)c(=O)c2cc(CN3CC[C@@H](O)C3)ccc21` strictly below 1000 nM?
Result: not satisfied
